# Test system: Candida albicans SNY425 biofilm
# ASSAY_EXPLANATION: biofilm OD600 with compound plus antifungal (OD600 (absorbance)); higher = more biofilm remaining
# ASSAY_CONTEXT: assay detail: sustained inhibition (compound + antifungal during 90-min adherence and 24-h growth)
MEASURED_QUANTITY: biofilm OD600
One number for each entry.

**Q:** Return reported biofilm OD600; argument: CC1CNc2c(cccc2S(=O)(=O)N[C@@H](CCCNC(=N)N)C(=O)N2CC[C@@H](C)C[C@@H]2C(=O)O)C1 (stereo not given in full) [Argatroban] + C[C@@H]1[C@H](O)[C@@H](C)/C=C/C=C/C=C/C=C/C=C/C=C/C=C/[C@H](O[C@@H]2O[C@H](C)[C@@H](O)[C@H](N)[C@@H]2O)C[C@@H]2O[C@](O)(C[C@@H](O)C[C@@H](O)[C@H](O)CC[C@@H](O)C[C@@H](O)CC(=O)O[C@H]1C)C[C@H](O)[C@H]2C(=O)O [amphotericin B] (first compound 12.5 µM)
**A:** 0.191

Respectfully, I request biofilm OD600 for each entry included below.
1. O=C(NCCCCN1CCOCC1)c1cc2ccccc2o1 + OC(Cn1cncn1)(Cn1cncn1)c1ccc(F)cc1F [fluconazole] (first compound 12.5 µM)
2. CC(C)CN(C[C@@H](O)[C@H](Cc1ccccc1)NC(=O)O[C@H]1CCOC1)S(=O)(=O)c1ccc(N)cc1 [amprenavir] + C[C@@H]1[C@H](O)[C@@H](C)/C=C/C=C/C=C/C=C/C=C/C=C/C=C/[C@H](O[C@@H]2O[C@H](C)[C@@H](O)[C@H](N)[C@@H]2O)C[C@@H]2O[C@](O)(C[C@@H](O)C[C@@H](O)[C@H](O)CC[C@@H](O)C[C@@H](O)CC(=O)O[C@H]1C)C[C@H](O)[C@H]2C(=O)O [amphotericin B] (first compound 12.5 µM)
3. COC(=O)C[C@H](NC(=O)[C@H](C)NC(=O)[C@@H](NC(=O)OCc1ccccc1)C(C)C)C(=O)CF + C[C@@H]1[C@H](O)[C@@H](C)/C=C/C=C/C=C/C=C/C=C/C=C/C=C/[C@H](O[C@@H]2O[C@H](C)[C@@H](O)[C@H](N)[C@@H]2O)C[C@@H]2O[C@](O)(C[C@@H](O)C[C@@H](O)[C@H](O)CC[C@@H](O)C[C@@H](O)CC(=O)O[C@H]1C)C[C@H](O)[C@H]2C(=O)O [amphotericin B] (first compound 12.5 µM)
4. C[C@H](CS)C(=O)N1CCC[C@H]1C(=O)O [Captopril] + CC[C@H](C)C[C@H](C)CCCCCCCCC(=O)N[C@H]1C[C@@H](O)[C@@H](NCCN)NC(=O)[C@@H]2[C@@H](O)CCN2C(=O)[C@H]([C@H](O)CCN)NC(=O)[C@H]([C@H](O)[C@@H](O)c2ccc(O)cc2)NC(=O)[C@@H]2C[C@@H](O)CN2C(=O)[C@H]([C@@H](C)O)NC1=O [caspofungin] (first compound 12.5 µM)

**A:**
1. 0.158
2. 0.232
3. 0.184
4. 0.198
